experiment: melting temperature; melt of duplexes; details: sodium 0.0675 M; strand 1 µM
Mark condition met for reported Tm of 50 °C or greater; mark condition not met for anything smaller.

# input Please check the record CGACGTGCACGATGTGCTG+CAGCACATTTGGCACGTCG ((((((((...((((((((+))))))))...)))))))) and state if its Tm is at or above 50 °C.
# output condition not met

# input Same thing, different substance: CGACGTGCGATATGTGCTG+CAGCACATACTGCACGTCG ((((((((..(((((((((+)))))))))..))))))))
# output condition met

# input Ok, now CGACGTGCTGCATGTGCTG+CAGCACATCTAGCACGTCG (((((((((..((((((((+))))))))..)))))))))
# output condition met

# input Consider next the substance CGACGTGCCATATGTGCTG+CAGCACATCCTGCACGTCG ((((((((...((((((((+))))))))...)))))))) in the same way.
# output condition not met

# input Same lookup for CGACGTGCTCCATGTGCTG+CAGCACATCTCGCACGTCG ((((((((...((((((((+))))))))...)))))))) , please.
# output condition not met

# input Also, CGACGTGCCATATGTGCTG+CAGCACATACGGCACGTCG (((((((((.(((((((((+))))))))).))))))))) please.
# output condition met

# input Param item: CGACGTGCCATATGTGCTG+CAGCACATCGTGCACGTCG ((((((((...((((((((+))))))))...))))))))
# output condition not met

# input Now give it for CGACGTGCAGTATGTGCTG+CAGCACATAGTGCACGTCG (((((((((.(((((((((+))))))))).))))))))) too.
# output condition met

# input Next up: CGACGTGCAAGATGTGCTG+CAGCACATGATGCACGTCG (((((((((..((((((((+))))))))..)))))))))
# output condition met

# input Item: CGACGTGCTTAATGTGCTG+CAGCACATAGCGCACGTCG ((((((((...((((((((+))))))))...))))))))
# output condition not met

# input Note, next up: CGACGTGCCGAATGTGCTG+CAGCACATGGAGCACGTCG ((((((((...((((((((+))))))))...))))))))
# output condition met

# input Param item: CGACGTGCTCAATGTGCTG+CAGCACATTGGGCACGTCG ((((((((.((((((((((+)))))))))).))))))))
# output condition met

# input Same thing, different substance: CGACGTGCGCCATGTGCTG+CAGCACATACTGCACGTCG ((((((((...((((((((+))))))))...))))))))
# output condition not met

# input What would you report for CGACGTGCAGCATGTGCTG+CAGCACATATAGCACGTCG ((((((((...((((((((+))))))))...)))))))) ?
# output condition not met

# input Next up: CGACGTGCGCAATGTGCTG+CAGCACATGACGCACGTCG (((((((((..((((((((+))))))))..)))))))))
# output condition met

# input # repeat for CGACGTGCTTGATGTGCTG+CAGCACATAGAGCACGTCG (((((((((..((((((((+))))))))..)))))))))
# output condition met

# input Try the substance CGACGTGCGAGATGTGCTG+CAGCACATGTTGCACGTCG ((((((((.(.((((((((+)))))))).).))))))))
# output condition met

# input Quick one: CGACGTGCTTGATGTGCTG+CAGCACATCGAGCACGTCG (((((((((.(((((((((+))))))))).)))))))))
# output condition met
